# protocol.notes: Metabolic stability in human liver microsomes
# Format: in vitro ADME
# condition.notes: human, liver microsomes, pH 7.4
experimental.endpoint: half-life at 10 μM (h)
Response body: numeric value in h, unit text excluded.

compound Cc1cc(-c2ccccc2)nc2nc(C(=O)Nc3ccccc3C(N)=O)nn12 [Compound 23] , half-life at 10 μM observed: 2.77
